# Test system: σ1 receptor and the μ-opiod receptor
# EXPERIMENT_NOTES: μ and σ1 dual binding: combined class from the Ki of both radioligand assays
# Set-up: species or system human; key: +: Both Ki-μ and Ki-σ1>=500 nM; ++: One Ki<500 nM while the other Ki is >=500 nM; +++: Both Ki-μ and Ki-σ1<500 nM; ++++: Both Ki-μ and Ki-σ1<100 nM
# CONDITION: combined class for Ki-μ and Ki-σ1; transfected HEK-293 membranes (σ1), transfected CHO-K1 cell membranes (μ)
MEASUREMENT_TYPE: μ and σ1 dual binding

MOLECULE	μ and σ1 dual binding
CC(C)S(=O)(=O)Nc1cccc(C2CCN(Cc3cn(Cc4ccc(C(F)(F)F)nc4)nn3)CC2)c1 [Example 124]	++
CC(C)S(=O)(=O)Nc1cccc(C2CCN(Cc3cn(Cc4ccccn4)cn3)CC2)c1 [Example 186]	++
CC(C)S(=O)(=O)Nc1cccc(C2CCN(Cc3cn(C(CO)c4ccccc4)nn3)CC2)c1 (stereo not drawn) [Example 130]	++
CS(=O)(=O)Nc1ccc(C(F)(F)F)c(C2CCN(Cc3cn(-c4ccccc4)nn3)CC2)c1 [Example 20]	++
CS(=O)(=O)Nc1cccc(C2CCN(Cc3cnn([C@@H]4c5ccccc5C[C@H]4O)c3)CC2)c1 [Example 166]	++
CS(=O)(=O)Nc1cccc(C2CCN(Cc3nnc(-c4ccccc4)o3)CC2)c1 [Example 175]	++
CS(=O)(=O)Nc1cccc(C2CCN(Cc3cn([C@@H]4Cc5ccccc5[C@H]4O)nn3)CC2)c1 [Example 100]	++
CC(C)(O)COc1ccc(-n2cc(CN3CCC(c4cccc(O)c4)CC3)nn2)cc1 [Example 106]	++
COc1cccnc1-n1cc(CN2CCC(c3cccc(O)c3)CC2)nn1 [Example 219]	++
CCC(=O)Nc1ccnc(C2CCN(Cc3cn(-c4ccccc4)nn3)CC2)c1 [Example 192]	++

Sure, the documented μ and σ1 dual binding for CC(C)S(=O)(=O)Nc1cccc([C@@H]2CCN(Cc3cn(Cc4ccccc4)nn3)C[C@@H]2O)c1 [Example 123] is ++

Memo: CC(C)S(=O)(=O)Nc1cccc(C2CCN(Cc3cn(Cc4ccc(C(F)(F)F)cn4)nn3)CC2)c1 [Example 122] , reported μ and σ1 dual binding: ++

Sample CC(C)S(=O)(=O)Nc1cccc([C@@H]2CCN(Cc3cnn(-c4ccccn4)c3)C[C@@H]2O)c1 [Example 169] ; μ and σ1 dual binding observed: ++

// CC(C)S(=O)(=O)Nc1cccc(C2CCN(Cc3cc(-c4ccccn4)no3)CC2)c1 [Example 181] : μ and σ1 dual binding value = ++

// recorded μ and σ1 dual binding for CC(C)S(=O)(=O)Nc1cccc(C2CCN(Cc3cn(Cc4ncccc4C(F)(F)F)nn3)CC2)c1 [Example 121] : ++

====

# SYSTEM_TESTED: σ1 receptor and the μ-opiod receptor
# EXPERIMENT_NOTES: μ and σ1 dual binding: combined class from the Ki of both radioligand assays
# Set-up: species or system human
# CONDITION: transfected HEK-293 membranes (σ1), transfected CHO-K1 cell membranes (μ)
As shown below, each of these molecules has a reported Ki range for both μ and σ1 (dual-binding class) value.

Here's what some known entries look like.
MOLECULE	SYSTEM_TESTED	ENDPOINT_VALUE
Oc1cccc(C2CCN(Cc3cn(Cc4ccc(F)cn4)cn3)CC2)c1	σ1 receptor and the μ-opiod receptor	< 0.5 µM
Oc1cccc(C2CCN(Cc3cn(-c4coc5ccccc45)nn3)CC2)c1	σ1 receptor and the μ-opiod receptor	< 0.1 µM
NC(=O)c1cccc(C2CCN(Cc3cn(-c4ccccc4)nn3)CC2)c1	σ1 receptor and the μ-opiod receptor	< 0.5 µM

Form field, Ki range for both μ and σ1 (dual-binding class) with σ1 receptor and the μ-opiod receptor, item CS(=O)(=O)Nc1cccc(C2CCN(Cc3cn(C4CCCCC4)nn3)CC2)c1 : < 0.5 µM

With σ1 receptor and the μ-opiod receptor as the test system, CC(c1ccccc1)n1cc(CN2CCC(c3cccc(NS(C)(=O)=O)c3)CC2)nn1 (stereo not drawn) showed Ki range for both μ and σ1 (dual-binding class) of < 0.5 µM

Value (Ki range for both μ and σ1 (dual-binding class), σ1 receptor and the μ-opiod receptor) for record CS(=O)(=O)Nc1cccc(C2CCN(Cc3cn(Cc4ccccc4)cn3)CC2)c1 = < 0.5 µM

Lab entry: σ1 receptor and the μ-opiod receptor assay, molecule Oc1cccc(C2CCN(Cc3cn(-c4ccc(F)c(F)c4)nn3)CC2)c1 , Ki range for both μ and σ1 (dual-binding class) = < 0.1 µM

Observed Ki range for both μ and σ1 (dual-binding class) on σ1 receptor and the μ-opiod receptor, entry CS(=O)(=O)Nc1cccc(C2CCN(Cc3cn(Cc4ccc(C(F)(F)F)cc4)nn3)CC2)c1 , equals < 0.5 µM

For CS(=O)(=O)Nc1cccc([C@@H]2CCN(Cc3cnn(-c4ccccc4)c3)C[C@@H]2O)c1 on σ1 receptor and the μ-opiod receptor, measured Ki range for both μ and σ1 (dual-binding class) was < 0.5 µM

Ki range for both μ and σ1 (dual-binding class) of CC(C)n1cc(CN2CCC(c3cccc(O)c3)CC2)nn1 , assay on σ1 receptor and the μ-opiod receptor, is < 0.5 µM

====

# SYSTEM_TESTED: σ1 receptor and the μ-opiod receptor
# EXPERIMENT_NOTES: μ and σ1 dual binding: combined class from the Ki of both radioligand assays
# Set-up: species or system human
# CONDITION: transfected HEK-293 membranes (σ1), transfected CHO-K1 cell membranes (μ)
MEASUREMENT_TYPE: Ki range for both μ and σ1 (dual-binding class)

Consider the following illustrative entries.
RECORD_SMILES	ENDPOINT_VALUE
Oc1cccc(C2CCN(Cc3cn(-c4ccncc4)nn3)CC2)c1	< 500 nM
CS(=O)(=O)Nc1cccc(C2CCN(Cc3cn([C@@H]4c5ccccc5C[C@H]4O)nn3)CC2)c1	< 500 nM
O=S(=O)(Nc1cccc(C2CCN(Cc3cn(-c4ccccc4F)nn3)CC2)n1)C1CC1	< 500 nM
CCC(=O)Nc1cccc(C2CCN(Cc3cn(-c4ccccc4)nn3)CC2)n1	< 500 nM
CS(=O)(=O)Nc1cccc(C2CCN(Cc3cnn(-c4ccccc4)c3)CC2)c1	< 100 nM
Oc1ccc(C2CCN(Cc3cn(-c4ccccc4)nn3)CC2)cc1	< 500 nM
Oc1ccccc1C1CCN(Cc2cn(-c3ccccc3)nn2)CC1	< 500 nM
Oc1cccc(C2CCN(Cc3cn(-c4ccc(Cl)cn4)nn3)CC2)c1	< 100 nM

Next compound, Ki range for both μ and σ1 (dual-binding class) to be filled in.
For this compound ( Oc1cccc(C2CCN(Cc3cn(-c4c(F)cccc4F)nn3)CC2)c1 ), measured Ki range for both μ and σ1 (dual-binding class) is < 100 nM

====

# SYSTEM_TESTED: σ1 receptor and the μ-opiod receptor
# EXPERIMENT_NOTES: μ and σ1 dual binding: combined class from the Ki of both radioligand assays
# Design: species or system human
# CONDITION: transfected HEK-293 membranes (σ1), transfected CHO-K1 cell membranes (μ)
MEASUREMENT_TYPE: Ki range for both μ and σ1 (dual-binding class)

For this molecule ( CCNC(=O)Nc1cccc(C2CCN(Cc3cn(Cc4ccccn4)nn3)CC2)c1 ), measured Ki range for both μ and σ1 (dual-binding class) is ≥ 500 nM

The molecule CS(=O)(=O)Nc1cccc(C2CCN(Cc3cc(-c4ccccc4)no3)CC2)c1 showed Ki range for both μ and σ1 (dual-binding class) equal to < 100 nM

====

# Tested on: σ1 receptor and the μ-opiod receptor
# EXPERIMENT_NOTES: μ and σ1 dual binding: combined class from the Ki of both radioligand assays
# Parameters: species or system human; key: +: Both Ki-μ and Ki-σ1>=500 nM; ++: One Ki<500 nM while the other Ki is >=500 nM; +++: Both Ki-μ and Ki-σ1<500 nM; ++++: Both Ki-μ and Ki-σ1<100 nM
# CONDITION: combined class for Ki-μ and Ki-σ1; transfected HEK-293 membranes (σ1), transfected CHO-K1 cell membranes (μ)
MEASUREMENT_TYPE: μ and σ1 dual binding

The following molecules have reported results that may help.
MOLECULE	MEASUREMENT_TYPE	ENDPOINT_VALUE
CNS(=O)(=O)c1cccc(C2CCN(Cc3cn(-c4ccccc4)nn3)CC2)c1 [Example 17]	μ and σ1 dual binding	++
Oc1cccc(C2CCN(Cc3cn(-c4ncccc4O)nn3)CC2)c1 [Example 216]	μ and σ1 dual binding	++
CC(C)S(=O)(=O)Nc1cccc(C2CCN(Cc3cn(Cc4cccc(C(F)(F)F)n4)nn3)CC2)c1 [Example 117]	μ and σ1 dual binding	++
CS(=O)(=O)Nc1cccc(C2CCN(Cc3ncn(-c4ccccc4)n3)CC2)c1 [Example 182]	μ and σ1 dual binding	++
CC(C)S(=O)(=O)Nc1cccc(C2CCN(Cc3cn([C@H]4c5ccccc5C[C@@H]4O)nn3)CC2)c1 [Example 105]	μ and σ1 dual binding	++
CCC(=O)Nc1cccc(C2CCN(Cc3cn([C@@H]4c5ccccc5C[C@H]4O)nn3)CC2)c1 [Example 69]	μ and σ1 dual binding	++
CS(=O)(=O)Nc1cccc(C2CCN(Cc3cn([C@@H]4Cc5ccccc5[C@@H]4O)nn3)CC2)c1 [Example 97]	μ and σ1 dual binding	++

// below: μ and σ1 dual binding requested for another molecule
Entry under test: CCC(=O)Nc1cccc(C2CCN(Cc3cn([C@@H]4c5ccccc5C[C@H]4O)nn3)CC2)n1 [Example 204] . Its μ and σ1 dual binding was ++

Origin of values: patent US9981942B2
